Let's look at some compounds and their measured DC50.
biological target: HiBiT-BRM fusion protein in stable HeLa cell line (Homo sapiens, UniProt P51531); construct: expressed in transfected cells; experiment: HiBiT-BRM cell-based degradation assay (Nano-Glo HiBiT Lytic Detection, 24 h); design: scale not given here; settings: HeLa HiBiT-BRM cells, read-out: BRM HiBit Degradation IC50
Sequence (P51531 whole entry, the tested form may be a part): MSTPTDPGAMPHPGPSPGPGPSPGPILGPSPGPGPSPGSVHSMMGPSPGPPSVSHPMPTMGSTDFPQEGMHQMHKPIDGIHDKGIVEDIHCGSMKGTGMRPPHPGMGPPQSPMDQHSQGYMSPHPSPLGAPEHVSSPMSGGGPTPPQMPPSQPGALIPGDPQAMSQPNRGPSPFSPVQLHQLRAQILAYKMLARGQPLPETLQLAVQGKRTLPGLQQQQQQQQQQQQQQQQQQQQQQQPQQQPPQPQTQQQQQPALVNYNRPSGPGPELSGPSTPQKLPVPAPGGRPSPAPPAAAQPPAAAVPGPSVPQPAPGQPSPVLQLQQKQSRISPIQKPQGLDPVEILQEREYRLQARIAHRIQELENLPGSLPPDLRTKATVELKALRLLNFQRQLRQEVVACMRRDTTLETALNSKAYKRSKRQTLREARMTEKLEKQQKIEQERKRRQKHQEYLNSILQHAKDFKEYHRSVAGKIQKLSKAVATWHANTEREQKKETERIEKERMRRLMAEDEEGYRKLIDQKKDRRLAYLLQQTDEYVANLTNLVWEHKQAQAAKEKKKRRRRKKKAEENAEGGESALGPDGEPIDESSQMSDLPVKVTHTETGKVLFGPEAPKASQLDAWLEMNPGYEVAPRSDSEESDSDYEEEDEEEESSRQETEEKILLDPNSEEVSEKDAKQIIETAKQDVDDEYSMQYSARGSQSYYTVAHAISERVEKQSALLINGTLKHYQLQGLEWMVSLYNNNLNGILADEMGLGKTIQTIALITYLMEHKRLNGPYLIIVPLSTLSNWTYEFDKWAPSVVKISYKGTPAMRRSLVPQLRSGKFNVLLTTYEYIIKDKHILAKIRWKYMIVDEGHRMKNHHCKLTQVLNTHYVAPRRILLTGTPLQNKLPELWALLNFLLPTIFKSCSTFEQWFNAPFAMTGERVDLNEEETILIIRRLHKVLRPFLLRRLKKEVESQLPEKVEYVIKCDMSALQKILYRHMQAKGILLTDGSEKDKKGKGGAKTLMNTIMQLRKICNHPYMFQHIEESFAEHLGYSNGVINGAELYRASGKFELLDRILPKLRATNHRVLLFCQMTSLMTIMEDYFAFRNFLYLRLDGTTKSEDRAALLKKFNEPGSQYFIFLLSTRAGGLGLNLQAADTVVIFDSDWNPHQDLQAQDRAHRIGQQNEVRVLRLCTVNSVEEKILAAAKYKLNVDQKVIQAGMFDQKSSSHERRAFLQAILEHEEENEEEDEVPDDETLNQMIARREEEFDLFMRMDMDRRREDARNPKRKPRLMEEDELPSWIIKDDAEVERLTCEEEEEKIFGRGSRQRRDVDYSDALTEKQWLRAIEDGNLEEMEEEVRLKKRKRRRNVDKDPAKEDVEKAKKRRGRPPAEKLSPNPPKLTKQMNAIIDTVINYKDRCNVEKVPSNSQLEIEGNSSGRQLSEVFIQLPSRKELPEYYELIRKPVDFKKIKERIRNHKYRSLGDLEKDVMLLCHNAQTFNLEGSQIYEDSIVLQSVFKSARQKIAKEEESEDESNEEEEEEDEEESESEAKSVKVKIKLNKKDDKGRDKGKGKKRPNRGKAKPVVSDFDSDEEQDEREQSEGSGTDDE

Here's what some known entries look like.
{"compound": "C#Cc1ccc([C@H](C)NC(=O)[C@@H]2C[C@@H](O)CN2C(=O)[C@H](C(C)C)n2cc(N3CC4(CN(c5ccc6cc(-c7ccccc7O)nnc6c5)C4)C3)nn2)cc1 [Compound 254]", "DC50": "< 10 nM"}
{"compound": "Cc1ncsc1-c1ccc([C@H](C)NC(=O)[C@@H]2C[C@@H](O)CN2C(=O)[C@H](C(C)C)n2cnc(N3CC4(CN(c5ccc6cc(-c7ccccc7O)nnc6c5)C4)C3)c2)cc1 [Compound 271]", "DC50": "> 10 nM"}
{"compound": "Cc1ncsc1-c1ccc([C@H](C)NC(=O)[C@@H]2C[C@@H](O)CN2C(=O)[C@@H](c2cc(N3CCCC4(CN(c5ccc6cc(-c7ccccc7O)nnc6c5)C4)C3)no2)C(C)C)cc1 [Compound 154]", "DC50": "< 10 nM"}

Okay, next one:
q: Which DC50 is reported with HiBiT-BRM fusion protein in stable HeLa cell line (Homo sapiens, UniProt P51531) for this entry: C#Cc1ccc([C@H](C)NC(=O)[C@@H]2C[C@@H](O)CN2C(=O)[C@@H](c2cc(N3CC4(CN(c5ccc6cc(-c7ccccc7O)nnc6c5)C4)C3)no2)C(C)C)cc1 [Compound 274] ?
a: < 10 nM
